From: ChEMBL document CHEMBL1201862

- System: EKVX
- protocol-summary: NCI tumour cell line growth inhibition, 48 h
Activity calls are given as the source filed them. Rule as the data show it: active = GI50 up to about 1.1 µM and inactive = higher.
measured-attribute: GI50

# count of solved cases: 3
compound	GI50
C=C1C(=O)OC2CC(C)C3C4OC4C(O)C3(C)C(O)C12 (stereo not drawn)	20 µM (inactive)
CC1(C)S[C@H](CN)N[C@H]1C(=O)OC(c1ccccc1)c1ccccc1	47.2 µM (inactive)
O=C(O)c1cccc2cccc(-c3c4ccc(=O)cc-4oc4cc(O)ccc34)c12	> 100 µM (inactive)

Now consider a different compound.
// GI50 lookup, key: Nc1nc(Cl)cc(Nc2ccc3c(c2)CCC3)n1
32.1 µM (inactive)

----------
- Test system: OVCAR-5
- protocol-summary: NCI tumour cell line growth inhibition, 48 h
The source made the active and inactive calls. Cut-off read from the data, not from the text of the source: active = GI50 up to about 1.1 µM and inactive = higher.
Lab note: assign the record to one of 1 for active, 0 for inactive

Some solved entries appear below for comparison.
molecule	class-label
c1ccc(CNn2nnc3ccccc32)cc1	0
Cc1ncc(COP(=O)(O)O)c(C)c1O	0
O=C(CC(NC(=O)C(F)(F)F)C(=O)O)OCc1ccccc1 (stereo not drawn)	0
Cc1cccc(-c2cccc(COCc3cccc(-c4cccc(CO)n4)n3)n2)n1	0

Lab note: next molecule to report on.
# fetch the recorded call for O=P1(Oc2ccccc2)C(c2ccccc2)C(c2ccccc2)=NN1c1ccccc1 (stereo not drawn) here
0

----------
- Tested on: KM12
- protocol-summary: NCI tumour cell line growth inhibition, 48 h
Activity calls are given as the source filed them. Rule as the data show it: active = GI50 up to about 1.1 µM and inactive = higher.
measured-attribute: GI50

molecule	GI50
CCOC(=O)CNC(=O)N(CC)C12CC3CC(CC(C3)C1)C2	125 µM (inactive)

// GI50 lookup, key: CC(C)(CN1CCCCC1)C(=O)CC(SCCN)c1ccc(Cl)cc1 (stereo unspecified)
1.88 µM (inactive)

// GI50 lookup, key: O=C(c1ccccc1)c1cn(/N=C\c2ccccc2)c(=O)nc1-c1ccccc1
> 100 µM (inactive)

// GI50 lookup, key: CC(C)C1CNC(=O)C2(/C=N/C(C(C)C)CNC(=O)C3(/C=N/1)CCCO3)CCCO2 (stereo unspecified)
> 10 µM (inactive)

// GI50 lookup, key: Nc1nccc(NCC2(CO)CCC2)n1
> 100 µM (inactive)

// GI50 lookup, key: N#CCc1nc2cc(C(F)(F)F)ccc2s1
64.6 µM (inactive)

----------
- System: LOX IMVI
- protocol-summary: NCI tumour cell line growth inhibition, 48 h
Calls of active or inactive are those of the source. Rule as the data show it: active = GI50 up to about 1.1 µM and inactive = higher.
We begin with a simple list: items and their reported GI50.

compound	data-value
COc1ccc(N2C(=O)C3ON(C(C(N)=O)c4ccccc4)C(c4ccc(-c5ccccc5)cc4)C3C2=O)cc1 (stereo unspecified)	36.5 µM (inactive)
COc1ccc(CC(N)c2ccc(OC)cc2)cc1 (stereo unspecified)	57.5 µM (inactive)
Cc1csc2c1-n1cccc1C2=O	> 100 µM (inactive)
O=C(OC1CCC(=C2SCCCS2)[C@H]1C1SCCCS1)c1ccccc1 (stereo partly specified)	> 100 µM (inactive)
C[Si](C)(C)CCOCN(C(=O)C1=CCC2(CC1)OCCO2)c1ccccc1I	29 µM (inactive)
Cc1c2c(c(C)n1-c1ccccc1)C(=O)N(CCCCN1CCN(c3ccccc3)CC1)C2=O	10 µM (inactive)

// GI50 lookup, key: O=C1CSC2(CCN(CCCN3c4ccccc4Sc4ccc(Cl)cc43)CC2)N1
3.88 µM (inactive)

// GI50 lookup, key: O=C(O)c1cc(CCc2cc(O)ccc2O)ccc1O
32.1 µM (inactive)

// GI50 lookup, key: CCOC(OCC)[C@H](N)[C@@H](O)[C@@H](O)[C@H]1COC(C)(C)O1
> 100 µM (inactive)

// GI50 lookup, key: CCOC(=O)C1=CCOc2cc(N(C)C)ccc21
> 100 µM (inactive)

// GI50 lookup, key: CCO/C=N/C1=C(C#N)C(c2ccc(Cl)cc2)c2c(-c3ccccc3)nn(-c3ccccc3)c2O1 (stereo unspecified)
9.62 µM (inactive)
